Kindly state CLsec Predicted 0% HSA for each of the entries shown.
# Test system: OAT1/3
# testDescription: Bottom-up IVIVE of CLint,sec, CLsec and CLr, relative expression factor (REF) approach
# Design: species or system human
# conditionsUsed: REF approach
# Description: The relative expression and relative activity factor (REF and RAF) are unitless scalers that account for in vivo versus in vitro differences in the abundance and activity of OAT1/3 and are used for IVIVE of in vitro CLint,u,active. […] 7 Absolute abundance of OAT1 and OAT3 in the human kidney cortex was previously quantified by our group using the filter-aided sample preparation protocol and global proteomic analysis.[44]
Answers are plain numbers, in L/h.

Answered cases to consult:
Ask | Recall the recorded CLsec Predicted 0% HSA for `CC(C)c1nc(N(C)S(C)(=O)=O)nc(-c2ccc(F)cc2)c1/C=C/[C@@H](O)C[C@@H](O)CC(=O)O` with OAT1/3 and state it.
Reply | 0.78

Ask | What do we get for `O=C(NC[C@H]1CN(c2ccc(N3CCOCC3=O)cc2)C(=O)O1)c1ccc(Cl)s1` ?
Reply | 0.48

Ask | What do we get for `CCCc1nc(C(C)(C)O)c(C(=O)O)n1Cc1ccc(-c2ccccc2-c2nnn[nH]2)cc1` ?
Reply | 0.02

Ask | What do we get for `Cc1ncc(CO)c(C(=O)O)c1O` ?
Reply | 0.29

Continue with the compound presented below.
Ask | Recall the recorded CLsec Predicted 0% HSA for `Nc1ncnc2c1ncn2CCOCP(=O)(O)O` with OAT1/3 and state it.
Reply | 21.3

The measurements presented in this section are drawn from paper PMC11372837.
